Tested on: MYC
Experiment: 3' UTR reporter interaction score (median-centred robust z-score of log2 firefly/Renilla activity); higher = less repression of the 3' UTR reporter
Conditions: HEK293T; 48 h
Our labelling divides records by 3' UTR reporter interaction score into ranges: low end: < -0.3; middle: ≥ -0.3 and < 0.001; high end: ≥ 0.001

In: Returns: class label. Input: `UAGUACCAGUACCUUGUGUUCA`
Out: middle

In: Lab note: sort `ACAGUCUGCUGAGGUUGGAGC` into the matching 3' UTR reporter interaction score band.
Out: low end

In: Using the reported 3' UTR reporter interaction score, which band applies to `UCCUUCAUUCCACCGGAGUCUG` ?
Out: high end

In: Hi there! Could you help me figure out the category for `AGGAAGCCCUGGAGGGGCUGGAGGU` please?
Out: low end

In: Category of `UCUGGCUCCGUGUCUUCACUCC` , please.
Out: low end

In: Sort into band: `AAAGUGCAUCUUUUUAGAGGAU`
Out: high end

In: Hi, small favor: classify `UGAUUGUAGCCUUUUGGAGUAGA` by its 3' UTR reporter interaction score when you get a moment.
Out: low end

In: Class for `GAAGGCGCUUCCCUUUGGAGU` ?
Out: low end

In: Which bin should I file `GUGGCUGCACUCACUUCCUUC` under?
Out: high end

In: Exam item: assign `UAACAGUCUCCAGUCACGGCC` to the correct category.
Out: middle

In: For this sequence, which bin applies? `AGGCUGCGGAAUUCAGGAC`
Out: low end

In: Record `UUCUCCAAAAGAAAGCACUUUCUG` — which class?
Out: low end

In: Category lookup for the sequence `UAUGGCACUGGUAGAAUUCACUG`
Out: high end

In: Which class does `UAAGGUGCAUCUAGUGCAGUUA` fall in?
Out: high end

In: Which of the defined bands does the recorded 3' UTR reporter interaction score of `AGGCGGGGCGCCGCGGGACCGC` sit within?
Out: middle

In: Using the reported 3' UTR reporter interaction score, which band applies to `AGCUCGGUCUGAGGCCCCUCAG` ?
Out: low end

In: Hi there! Could you help me figure out the category for `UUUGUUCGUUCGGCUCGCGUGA` please?
Out: high end

In: Bin this entry: `UCCGUCUCAGUUACUUUAUAGCC`
Out: high end

In: Assign a category based on measured 3' UTR reporter interaction score for `GCACAUUACACGGUCGACCUCU` and give only the class name.
Out: middle

In: Which class does `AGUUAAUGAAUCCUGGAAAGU` fall in?
Out: high end

In: Into which category would you place `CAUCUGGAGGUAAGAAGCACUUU` ?
Out: middle

In: Class for `UGAAGGUCUACUGUGUGCCAG` ?
Out: middle
